The reported numbers originate from PubChem BioAssay AID2060621.

# Tested on: 324938-238-R-J1-PDC complex spheroids viability;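 note: viability read after seven days of drug exposure; 100% = DMSO vehicle control wells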
# test_summary: Anticancer human tumor 324938-238-R-J1-PDC patient-derived bladder carcinoma cell line growth inhibition [CLK]
# recorded_conditions: second compound 0.1 µM; first compound 1 µM; stronger effect = lower value
Please respond with reported viability, T/C for every item in the list.
Your answer is read as %, so omit the unit and give the number.

Entry CC(=O)O[C@H]1C(=O)[C@@]2(C)[C@H]([C@H](OC(=O)c3ccccc3)[C@]3(O)C[C@H](OC(=O)[C@H](O)[C@@H](NC(=O)c4ccccc4)c4ccccc4)C(C)=C1C3(C)C)[C@]1(OC(C)=O)CO[C@@H]1C[C@@H]2O + CN1CCN(c2cc(C(=O)Nc3cc4cc(-c5cnn(C)c5)ccc4cn3)ccn2)CC1 , 324938-238-R-J1-PDC complex spheroids viability data, viability, T/C value: 13.8

Entry Nc1ccccc1NC(=O)c1ccc(CNC(=O)OCc2cccnc2)cc1 + CNC(=O)c1ccc(Nc2nc(OC3CCCC3)c3c(-c4ccc5nc(C)oc5c4)c[nH]c3n2)c(OC)c1 , 324938-238-R-J1-PDC complex spheroids viability data, viability, T/C value: 34

Entry CC(CO)NC(=O)c1cc(-c2ccc(Cl)cc2)nn(-c2cnn(C)c2)c1=O (stereo not given) + CNC(=O)c1ccc(Nc2nc(OC3CCCC3)c3c(-c4ccc5nc(C)oc5c4)c[nH]c3n2)c(OC)c1 , 324938-238-R-J1-PDC complex spheroids viability data, viability, T/C value: 35

Entry C=C(F)C(=O)N1CCN(c2nc(OCC3CCCN3C)nc3c2CCN(c2cccc4cccc(Cl)c24)C3)CC1CC#N (stereo not given) + CNC(=O)c1ccc(Nc2nc(OC3CCCC3)c3c(-c4ccc5nc(C)oc5c4)c[nH]c3n2)c(OC)c1 , 324938-238-R-J1-PDC complex spheroids viability data, viability, T/C value: 23.1

Entry COc1ccc([C@@H](O)c2cc(-c3ncnc4cc(N5CCOCC5)ccc34)c(F)cc2Cl)nn1 + CNC(=O)c1ccc(Nc2nc(OC3CCCC3)c3c(-c4ccc5nc(C)oc5c4)c[nH]c3n2)c(OC)c1 , 324938-238-R-J1-PDC complex spheroids viability data, viability, T/C value: 28

Entry COc1cccc2c1C(=O)c1c(O)c3c(c(O)c1C2=O)CC(O)(C(=O)CO)CC3OC1CC(N)C(O)C(C)O1 (stereo not given) + CN1CCN(c2cc(C(=O)Nc3cc4cc(-c5cnn(C)c5)ccc4cn3)ccn2)CC1 , 324938-238-R-J1-PDC complex spheroids viability data, viability, T/C value: 0.56

Entry Nc1ccn(C2OC(CO)C(O)C2(F)F)c(=O)n1 (stereo not given) + CNC(=O)c1ccc(Nc2nc(OC3CCCC3)c3c(-c4ccc5nc(C)oc5c4)c[nH]c3n2)c(OC)c1 , 324938-238-R-J1-PDC complex spheroids viability data, viability, T/C value: 14.2

Entry CC(Nc1ccc2c(c1)OCCn1cc(N3C(=O)OCC3C(F)F)nc1-2)C(N)=O (stereo not given) + CN1CCN(c2cc(C(=O)Nc3cc4cc(-c5cnn(C)c5)ccc4cn3)ccn2)CC1 , 324938-238-R-J1-PDC complex spheroids viability data, viability, T/C value: 26.5

Entry O=C(c1cc(Cc2n[nH]c(=O)c3ccccc23)ccc1F)N1CCN(C(=O)C2CC2)CC1 + CNC(=O)c1ccc(Nc2nc(OC3CCCC3)c3c(-c4ccc5nc(C)oc5c4)c[nH]c3n2)c(OC)c1 , 324938-238-R-J1-PDC complex spheroids viability data, viability, T/C value: 28

Entry COc1cccc2c1C(=O)c1c(O)c3c(c(O)c1C2=O)CC(O)(C(=O)CO)CC3OC1CC(N)C(O)C(C)O1 (stereo not given) + CNC(=O)c1ccc(Nc2nc(OC3CCCC3)c3c(-c4ccc5nc(C)oc5c4)c[nH]c3n2)c(OC)c1 , 324938-238-R-J1-PDC complex spheroids viability data, viability, T/C value: 0.48
